# target_of_assay: hMCR-1a (Homo sapiens)
# Sequence (Q01726 whole entry): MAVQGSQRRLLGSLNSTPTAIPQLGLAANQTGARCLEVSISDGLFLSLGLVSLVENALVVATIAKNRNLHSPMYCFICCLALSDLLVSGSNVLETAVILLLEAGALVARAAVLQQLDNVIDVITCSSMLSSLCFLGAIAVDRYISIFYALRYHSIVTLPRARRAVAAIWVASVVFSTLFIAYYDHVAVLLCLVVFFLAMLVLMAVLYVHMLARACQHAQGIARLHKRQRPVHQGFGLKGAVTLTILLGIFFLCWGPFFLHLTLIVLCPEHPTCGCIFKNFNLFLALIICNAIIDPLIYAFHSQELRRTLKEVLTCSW
# experiment: Competitive inhibition binding assay using [I125]-NDP-α-MSH, hMCR-1a membranes
# reported_conditions: HEK-293 membranes, recombinant human MCR-1, [I125]-NDP-α-MSH; read-out: MC-1 Ki (average)
Where a SMILES comes first, the peptide text is derived from it. [ ]: non-standard residue; d: D form. Nle = CCCC[C@H](N)C(=O)O; Dab = NCC[C@H](N)C(=O)O
measured_parameter: Ki (nM)
Numbers only; they are read as nM.

As a guide, the following entries are already answered.
[[record]]
molecule = "CCCC[C@H](NC(C)=O)C(=O)N[C@@H](C)C(=O)N[C@@H](Cc1c[nH]cn1)C(=O)N[C@H](Cc1ccccc1)C(=O)N[C@@H](CCCNC(=N)N)C(=O)N1CCC[C@H]1C(=O)N[C@H](Cc1c[nH]c2ccccc12)C(N)=O [Example 9.13, Ac-Nle-Ala-His-D-Phe-Arg-Pro-D-Trp-NH2] (Ac-[Nle]AH[dF]RP[dW]-NH2)"
value_units = "nM"
assay_result = 2

[[record]]
molecule = "CCCC[C@H](NC(C)=O)C(=O)N[C@@H](C)C(=O)N[C@@H](Cc1ccccc1)C(=O)N[C@H](Cc1ccccc1)C(=O)N[C@@H](CCCNC(=N)N)C(=O)N[C@@H](C)C(=O)N[C@@H](Cc1c[nH]c2ccccc12)C(N)=O [Example 9.19, Ac-Nle-Ala-Phe-D-Phe-Arg-Ala-Trp-NH2] (Ac-[Nle]AF[dF]RAW-NH2)"
value_units = "nM"
assay_result = 20


Now for a further molecule.
Record summary for CCCC[C@H](NC(C)=O)C(=O)N[C@@H](C)C(=O)N[C@@H](CCN)C(=O)N[C@H](Cc1ccccc1)C(=O)N[C@@H](CCCNC(=N)N)C(=O)N[C@@H](C)C(=O)N[C@@H](Cc1c[nH]c2ccccc12)C(N)=O [Example 9.22, Ac-Nle-Ala-Dab-D-Phe-Arg-Ala-Trp-NH2] (Ac-[Nle]A[Dab][dF]RAW-NH2) : reported Ki = 2

----------
# target_of_assay: hMCR-1 (Homo sapiens)
# Construct: endogenous in cells
# Sequence (Q01726 whole entry): as above
# experiment: Assay for agonist activity: cAMP accumulation in HBL human melanoma cells
# reported_conditions: read-out: MC-1 EC50 (average; cAMP HBL)
Where a SMILES comes first, the peptide text is derived from it. [ ]: non-standard residue; d: D form. Nle = CCCC[C@H](N)C(=O)O
measured_parameter: EC50 (nM)
Answer in nM, number only, no unit symbol.

[[record]]
compound = "CCCC[C@H](NC(C)=O)C(=O)N[C@@H](C)C(=O)N[C@@H](Cc1c[nH]cn1)C(=O)N[C@H](Cc1ccccc1)C(=O)N[C@@H](CCCNC(=N)N)C(=O)N1CCC[C@H]1C(=O)N[C@H](Cc1c[nH]c2ccccc12)C(N)=O [Example 9.13, Ac-Nle-Ala-His-D-Phe-Arg-Pro-D-Trp-NH2] (Ac-[Nle]AH[dF]RP[dW]-NH2)"
measured_parameter = "EC50"
value_units = "nM"
assay_result = 0.17


The measured EC50 associated with CCCC[C@H](NC(C)=O)C(=O)N[C@@H](C)C(=O)N[C@@H](Cc1ccccc1)C(=O)N[C@H](Cc1ccccc1)C(=O)N[C@@H](CCCNC(=N)N)C(=O)N[C@@H](C)C(=O)N[C@@H](Cc1c[nH]c2ccccc12)C(N)=O [Example 9.19, Ac-Nle-Ala-Phe-D-Phe-Arg-Ala-Trp-NH2] (Ac-[Nle]AF[dF]RAW-NH2) reads 6

Entry under test: CCCC[C@H](NC(C)=O)C(=O)N[C@@H](C)C(=O)N[C@@H](Cc1c[nH]cn1)C(=O)N[C@H](Cc1ccccc1)C(=O)N[C@@H](CCCNC(=N)N)C(=O)N1CCC[C@@H]1C(=O)N[C@@H](Cc1c[nH]c2ccccc12)C(N)=O [Example 9.11, Ac-Nle-Ala-His-D-Phe-Arg-D-Pro-Trp-NH2] (Ac-[Nle]AH[dF]R[dP]W-NH2) . Its EC50 was 1

Entry CCCC[C@H](NC(C)=O)C(=O)N[C@@H](C)C(=O)N[C@@H](Cc1c[nH]cn1)C(=O)N[C@H](Cc1ccccc1)C(=O)N[C@@H](C)C(=O)N[C@@H](C)C(=O)N[C@@H](Cc1c[nH]c2ccccc12)C(N)=O [Example 9.16, Ac-Nle-Ala-His-D-Phe-Ala-Ala-Trp-NH2] (Ac-[Nle]AH[dF]AAW-NH2) — recorded EC50 = 4
